# target: T1, human LAG-3 protein with hFc tag (hLAG-3-hFc protein) (human, UniProt P18627 23-450)
# T1 construct: also called immunogen 1; LAG-3 extracellular domain protein; not shown: human IgG Fc fragment (hFc) of the pCpC vector
# T1 sequence: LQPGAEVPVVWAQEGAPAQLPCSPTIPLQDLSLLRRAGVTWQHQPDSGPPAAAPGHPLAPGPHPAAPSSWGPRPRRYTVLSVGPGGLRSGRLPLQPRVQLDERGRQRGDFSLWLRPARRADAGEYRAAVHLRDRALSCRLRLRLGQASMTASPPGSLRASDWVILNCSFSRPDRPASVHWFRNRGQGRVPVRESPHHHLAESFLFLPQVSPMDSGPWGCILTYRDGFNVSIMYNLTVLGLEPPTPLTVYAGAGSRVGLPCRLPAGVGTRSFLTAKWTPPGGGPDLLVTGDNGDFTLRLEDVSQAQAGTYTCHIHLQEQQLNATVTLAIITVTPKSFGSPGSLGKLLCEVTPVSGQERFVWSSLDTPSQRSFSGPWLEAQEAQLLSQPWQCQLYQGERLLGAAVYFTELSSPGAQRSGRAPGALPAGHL
# test_details: FACS, blocks LAG-3-hFc binding to MHC II on Raji; 200.000 nM
quantity_name: Inhibition rate (%)
Give the value in % but do not write % after it.

Given 556F6B8 (mouse antibody purified from hybridoma) (antibody, V domains shown, also called mAb123-556F6B8) VH: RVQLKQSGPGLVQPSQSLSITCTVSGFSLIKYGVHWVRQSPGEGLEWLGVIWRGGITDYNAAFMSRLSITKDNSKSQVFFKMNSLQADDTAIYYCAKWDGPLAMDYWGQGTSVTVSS VL: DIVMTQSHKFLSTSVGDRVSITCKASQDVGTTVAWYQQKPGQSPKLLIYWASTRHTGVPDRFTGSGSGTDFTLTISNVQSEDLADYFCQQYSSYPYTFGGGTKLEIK , state its recorded Inhibition rate (%). 96

Values compiled from patent US20210155689A1.
